- Test system: U2OS
- assay procedure: Multiplex assay against U2OS
- Format: toxicity, cell-based
- measurement conditions: human, 24 h, 1 µM, compound concentration 1 uM, replicate 1
Listing: Population Mitotic Cells (%) of selected molecules
Number only, in %; omit the unit.

Population Mitotic Cells (%) for CCCCC(=O)N(Cc1ccc(-c2ccccc2-c2nnn[nH]2)cc1)[C@H](C(=O)O)C(C)C ? 13

Now the molecule Cc1cccc(NC(=O)CN2CCC(c3ccccn3)CC2)c1.Cl.Cl 23

Now the molecule N#Cc1c(Oc2cccc(OS(=O)(=O)CCCC(F)(F)F)c2)cccc1C(F)(F)F 24

Now the molecule O=C(CCCc1ccccc1)Nc1nc2ccccc2c(=O)s1 20

Now the molecule COc1cccc2c1c(NS(=O)(=O)c1ccc(Cl)s1)nn2Cc1cccc(CNC(=O)C(C)(C)O)c1 3

Now the molecule CCCCC1=NC2(CCCC2)C(=O)N1Cc1ccc(-c2ccccc2-c2nnn[nH]2)cc1 29
